biological target: UniProt A6JJ35; experiment: Inhibition of Lp-PLA2 in rat plasma at 50 nM using 2-thio-PAF as substrate preincubated for 30 min followed by substrate addition measured every minute for 10 mins by DNTB reagent based assay relative to control
Please use Met whenever inhibition is not below 30%, and Not met whenever it is.

N#Cc1cc(NS(=O)(=O)c2ccc(N)cc2)ccc1Oc1ccc(Cl)c(C(F)(F)F)c1 : Met
CC(=O)Nc1ccc(S(=O)(=O)Nc2ccc(Oc3ccc(Cl)c(C(F)(F)F)c3)c(C#N)c2)cc1 : Met
CC(=O)NCc1ccc(S(=O)(=O)Nc2ccc(Oc3ccc(Cl)c(C(F)(F)F)c3)c(C#N)c2)cc1 : Met
N#Cc1cc(NS(=O)(=O)c2ccc(C(=O)O)cc2)ccc1Oc1ccc(Cl)c(C(F)(F)F)c1 : Met
CCN(CC)CCN(Cc1ccc(-c2ccc(C(F)(F)F)cc2)cc1)C(=O)Cn1c(SCc2ccc(F)cc2)nc(=O)c2c1CCC2 [DARAPLADIB] : Met
CC(=O)N(C)c1ccc(S(=O)(=O)Nc2ccc(Oc3ccc(Cl)c(C(F)(F)F)c3)c(C#N)c2)cc1 : Not met
N#Cc1cc(NS(=O)(=O)c2ccc(N3CCNCC3)cc2)ccc1Oc1ccc(Cl)c(C(F)(F)F)c1 : Met
CC(=O)Nc1ccc(S(=O)(=O)Nc2ccc(Oc3ccc(F)c(C(F)(F)F)c3)c(C#N)c2)cc1 : Not met
N#Cc1cc(NS(=O)(=O)c2ccc(NC(=O)N3CCOCC3)cc2)ccc1Oc1ccc(Cl)c(C(F)(F)F)c1 : Not met
CC(=O)Nc1ccc(S(=O)(=O)Nc2ccc(Oc3ccc(C#N)c(C(F)(F)F)c3)c(C#N)c2)cc1 : Not met
N#Cc1cc(NS(=O)(=O)c2ccc(N3CCOCC3)cc2)ccc1Oc1ccc(Cl)c(C(F)(F)F)c1 : Not met

----------
molecular target: Platelet-activating factor acetylhydrolase (Rattus norvegicus) (UniProt A6JJ35); assay: Inhibition of Lp-PLA2 in rat plasma at 250 nM using 2-thio-PAF as substrate preincubated for 30 min followed by substrate addition measured every minute for 10 mins by DNTB reagent based assay by DNTB reagent based assay relative to control
Sequence (A6JJ35 as listed by the source): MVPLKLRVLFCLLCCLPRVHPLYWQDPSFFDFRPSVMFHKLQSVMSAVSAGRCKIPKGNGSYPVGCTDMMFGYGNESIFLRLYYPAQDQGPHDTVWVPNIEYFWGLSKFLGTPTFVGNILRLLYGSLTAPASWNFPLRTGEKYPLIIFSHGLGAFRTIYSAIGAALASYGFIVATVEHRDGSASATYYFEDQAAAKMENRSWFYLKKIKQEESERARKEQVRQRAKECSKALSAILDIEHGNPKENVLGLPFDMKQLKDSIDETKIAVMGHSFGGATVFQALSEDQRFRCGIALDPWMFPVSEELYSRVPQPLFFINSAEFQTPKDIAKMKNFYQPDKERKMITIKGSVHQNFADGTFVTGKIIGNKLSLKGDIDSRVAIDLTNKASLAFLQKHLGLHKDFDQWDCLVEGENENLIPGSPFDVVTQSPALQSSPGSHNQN
Entries and their inhibition values follow.
measured.attribute: inhibition

CC(=O)NCc1ccc(S(=O)(=O)Nc2ccc(Oc3ccc(Cl)c(C(F)(F)F)c3)c(C#N)c2)cc1 : 80%
N#Cc1cc(NS(=O)(=O)c2ccc(N3CCNCC3)cc2)ccc1Oc1ccc(Cl)c(C(F)(F)F)c1 : 68%
N#Cc1cc(NS(=O)(=O)c2ccc(C(=O)O)cc2)ccc1Oc1ccc(Cl)c(C(F)(F)F)c1 : 67%
N#Cc1cc(NS(=O)(=O)c2ccc(NC(=O)N3CCOCC3)cc2)ccc1Oc1ccc(Cl)c(C(F)(F)F)c1 : 64%
CC(=O)Nc1ccc(S(=O)(=O)Nc2ccc(Oc3ccc(Cl)c(C(F)(F)F)c3)c(C#N)c2)cc1 : 64%
N#Cc1cc(NS(=O)(=O)c2ccc(N)cc2)ccc1Oc1ccc(Cl)c(C(F)(F)F)c1 : 67%
CC(=O)Nc1ccc(S(=O)(=O)Nc2ccc(Oc3ccc(F)c(C(F)(F)F)c3)c(C#N)c2)cc1 : 55%
CC(=O)N(C)c1ccc(S(=O)(=O)Nc2ccc(Oc3ccc(Cl)c(C(F)(F)F)c3)c(C#N)c2)cc1 : 45%
CC(=O)Nc1ccc(S(=O)(=O)Nc2ccc(Oc3ccc(C#N)c(C(F)(F)F)c3)c(C#N)c2)cc1 : 42%
N#Cc1cc(NS(=O)(=O)c2ccc(N3CCOCC3)cc2)ccc1Oc1ccc(Cl)c(C(F)(F)F)c1 : 48%
CCN(CC)CCN(Cc1ccc(-c2ccc(C(F)(F)F)cc2)cc1)C(=O)Cn1c(SCc2ccc(F)cc2)nc(=O)c2c1CCC2 : 97%

The reported numbers originate from ChEMBL document CHEMBL4024767.
